- tested-target: GRID2IP_2, A4D2P6
- Sequence (A4D2P6 272-370): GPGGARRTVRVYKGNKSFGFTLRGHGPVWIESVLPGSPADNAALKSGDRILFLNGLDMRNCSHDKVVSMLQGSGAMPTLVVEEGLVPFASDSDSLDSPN
- method: holdup assay
- Parameters: key: below the threshold = too weak to quantify, mostly under pKd 3.1 to 4
- measurement-setup: plain residues with an end cap or a label only (N-terminal biotin on a linker: ttds)

| binder | pKd |
| --- | --- |
| SGSRPSATVV [HPV73-E6, Q82005] | below the threshold |
| EVVHTPETSV [SLC16A3, O15427] | below the threshold |
| FHPLGADSQV [SLC2A1, P11166] | below the threshold |
| VDFPPKESSL [ACVR2A, P27037] | 3.48 |
